Test system: Pseudomonas aeruginosa
PROCEDURE TEXT: Compound was tested for inhibition of Pseudomonas aeruginosa 18SH in combination with Ceftriaxone
Format: functional
Listing: MIC of selected compounds
ENDPOINT: MIC (µg/mL)

SAMPLE SMILES | TARGET OF ASSAY | UNITS LABEL | RELATION SYMBOL | NUMERIC VALUE
C[C@]1(/C=C\c2cncs2)[C@H](C(=O)[O-])N2C(=O)C[C@H]2S1(=O)=O.[Na+] | Pseudomonas aeruginosa | µg/mL | > | 16
C[C@]1(/C=C\C(N)=O)[C@H](C(=O)O)N2C(=O)C[C@H]2S1(=O)=O | Pseudomonas aeruginosa | µg/mL | = | 4
C[C@]1(/C=C\Cl)[C@H](C(=O)[O-])N2C(=O)C[C@H]2S1(=O)=O.[Na+] | Pseudomonas aeruginosa | µg/mL | = | 4
C[C@]1(/C=C/c2nnco2)[C@H](C(=O)[O-])N2C(=O)C[C@H]2S1(=O)=O.[Na+] | Pseudomonas aeruginosa | µg/mL | = | 16

----------
PROCEDURE TEXT: Compound was tested for inhibition of TEM-1, class A of beta-lactamases.
Format: functional, Escherichia coli
ENDPOINT: IC50 (µM)

SAMPLE SMILES | ENDPOINT | UNITS LABEL | NUMERIC VALUE
C[C@]1(C=CCO)[C@H](C(=O)[O-])N2C(=O)C[C@H]2S1(=O)=O.[Na+] | IC50 | µM | 6.5
C[C@]1(/C=C\C(N)=O)[C@H](C(=O)O)N2C(=O)C[C@H]2S1(=O)=O | IC50 | µM | 1.2
C[C@]1(/C=C\Cl)[C@H](C(=O)[O-])N2C(=O)C[C@H]2S1(=O)=O.[Na+] | IC50 | µM | 5.6
CON(C)C(=O)/C=C\[C@@]1(C)[C@H](C(=O)[O-])N2C(=O)C[C@H]2S1(=O)=O.[Na+] | IC50 | µM | 12

----------
PROCEDURE TEXT: Compound was tested for inhibition of Penicillin-binding protein 2x from Streptococcus pneumoniae

SAMPLE SMILES | IC50 [µM]
C[C@]1(/C=C\c2ccccn2)[C@H](C(=O)[O-])N2C(=O)C[C@H]2S1(=O)=O.[Na+] | 4.5
C[C@]1(/C=C/c2cncs2)[C@H](C(=O)O)N2C(=O)C[C@H]2S1(=O)=O | 50
C[C@]1(/C=C\c2cncs2)[C@H](C(=O)[O-])N2C(=O)C[C@H]2S1(=O)=O.[Na+] | 4.8

----------
TARGET OF ASSAY: Metallo-beta-lactamase type 2 (Bacteroides fragilis, UniProt P25910)
Sequence (P25910 whole entry): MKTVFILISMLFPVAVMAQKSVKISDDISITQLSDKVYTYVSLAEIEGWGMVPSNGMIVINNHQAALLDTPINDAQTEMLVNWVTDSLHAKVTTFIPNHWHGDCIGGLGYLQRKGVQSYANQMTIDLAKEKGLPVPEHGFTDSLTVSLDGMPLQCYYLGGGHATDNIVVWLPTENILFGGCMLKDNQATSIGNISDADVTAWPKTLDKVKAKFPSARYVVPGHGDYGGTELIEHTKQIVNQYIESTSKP
PROCEDURE TEXT: Compound was tested for inhibition of Beta-lactamase from Bacteroides fragilis BF 101

MOLECULE | UNITS LABEL | IC50
C[C@]1(C=CC#N)[C@H](C(=O)O)N2C(=O)C[C@H]2S1(=O)=O [Ro-481220] | µM | 200

----------
Listing: MIC of selected compounds
Test system: Pseudomonas aeruginosa
PROCEDURE TEXT: Compound was tested for inhibition of Pseudomonas aeruginosa 18SH in combination with Ceftriaxone
Format: functional
ENDPOINT: MIC (µg/mL)

SAMPLE SMILES | TARGET OF ASSAY | ENDPOINT | RELATION SYMBOL | NUMERIC VALUE
C[C@]1(C=CC(N)=O)[C@H](C(=O)O)N2C(=O)C[C@H]2S1(=O)=O | Pseudomonas aeruginosa | MIC | = | 16
C[C@]1(/C=C\c2ccccn2)[C@H](C(=O)[O-])N2C(=O)C[C@H]2S1(=O)=O.[Na+] | Pseudomonas aeruginosa | MIC | > | 16
CON(C)C(=O)/C=C\[C@@]1(C)[C@H](C(=O)[O-])N2C(=O)C[C@H]2S1(=O)=O.[Na+] | Pseudomonas aeruginosa | MIC | > | 16
C[C@]1(/C=C/c2cncs2)[C@H](C(=O)O)N2C(=O)C[C@H]2S1(=O)=O | Pseudomonas aeruginosa | MIC | = | 16
C[C@]1(C=CCO)[C@H](C(=O)[O-])N2C(=O)C[C@H]2S1(=O)=O.[Na+] | Pseudomonas aeruginosa | MIC | = | 16
C[C@]1(/C=C/COC(N)=O)[C@H](C(=O)O)N2C(=O)C[C@H]2S1(=O)=O | Pseudomonas aeruginosa | MIC | = | 8
